Measured values drawn from ChEMBL document CHEMBL1133078 for this set.

- System: Canis familiaris
- test_name: Volume of distribution after intravenous administration of 1 mg/kg/h in dog
- Assay type: ADME, organism-based, Canis lupus familiaris
- Set-up: route intravenous
- stated_conditions: in vivo
Hi there, I'd appreciate the recorded Vdss for every entry that follows.
Give bare numbers, in L/kg.

Some solved cases for reference:
> print(dat)
                              smiles.record  result.value
1  COCc1onc(-c2cccc(C(=N)N)c2)c1C(=O)Nc1ccc(-c2ccccc2S(N)(=O)=O)cc1          0.85
2  N=C(N)c1cccc(-c2nocc2C(=O)Nc2ccc(-c3ccccc3S(N)(=O)=O)cc2)c1           1.7

Please turn your attention to the following entry.
*Q* Item N=C(N)c1cccc(C2=NO[C@H](Cn3cnnn3)[C@H]2C(=O)Nc2ccc(-c3ccccc3S(N)(=O)=O)cc2)c1 with Canis familiaris - Vdss?
*A* 0.24

###

Hi there, I'd appreciate the recorded half-life for every entry that follows.
- test_name: Half-life after intravenous administration of 1 mg/kg/h in dog
- Assay type: ADME, organism-based, Canis lupus familiaris
- Parameters: route intravenous
- stated_conditions: in vivo
One number for each entry, in h.

Some solved cases for reference:
> print(dat)
                              smiles.record  result.value
1  COC[C@H]1ON=C(c2cccc(C(=N)N)c2)[C@@H]1C(=O)Nc1ccc(-c2ccccc2S(N)(=O)=O)cc1           1.2
2  N=C(N)c1cccc(-c2nocc2C(=O)Nc2ccc(-c3ccccc3S(N)(=O)=O)cc2)c1           4.3
3  N=C(N)c1cccc(C2=NO[C@H](Cn3cnnn3)[C@H]2C(=O)Nc2ccc(-c3ccccc3S(N)(=O)=O)cc2)c1             1

*Q* Returns the measured half-life for the input compound. Input: COCc1onc(-c2cccc(C(=N)N)c2)c1C(=O)Nc1ccc(-c2ccccc2S(N)(=O)=O)cc1
*A* 1.2

###

- system_tested: Serine protease 1 (Bos taurus, UniProt P00760)
- Sequence (P00760 whole entry): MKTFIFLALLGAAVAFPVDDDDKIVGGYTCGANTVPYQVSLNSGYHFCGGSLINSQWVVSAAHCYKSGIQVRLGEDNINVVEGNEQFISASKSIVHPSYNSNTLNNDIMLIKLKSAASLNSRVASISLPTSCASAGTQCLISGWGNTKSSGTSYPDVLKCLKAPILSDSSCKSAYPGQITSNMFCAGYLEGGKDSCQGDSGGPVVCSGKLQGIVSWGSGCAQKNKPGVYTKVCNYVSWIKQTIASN
Entries whose Ki is below 100 nM take MET; entries at or above 100 nM take NOT MET.

Recorded results for 6 molecules are shown here.
> print(dat)
                                   molecule    group
1  C[C@H]1ON=C(c2cccc(C(=N)N)c2)[C@@H]1C(=O)Nc1ccc(-c2ccccc2S(N)(=O)=O)cc1  NOT MET
2  N=C(N)c1cccc(-c2noc(N)c2C(=O)Nc2ccc(-c3ccccc3S(N)(=O)=O)cc2)c1  NOT MET
3  N=C(N)c1cccc(-c2noc(CO)c2C(=O)Nc2ccc(-c3ccccc3S(N)(=O)=O)cc2)c1      MET
4  CC1(C(=O)Nc2ccc(-c3ccccc3S(N)(=O)=O)cc2)CC(c2cccc(C(=N)N)c2)=NO1 (configuration not stated)  NOT MET
5  N=C(N)c1cccc(-c2noc(C(F)(F)F)c2C(=O)Nc2ccc(-c3ccccc3S(N)(=O)=O)cc2)c1  NOT MET
6  COC[C@H]1ON=C(c2cccc(C(=N)N)c2)[C@@H]1C(=O)Nc1ccc(-c2ccccc2S(N)(=O)=O)cc1  NOT MET

With those in mind, consider the next molecule.
*Q* # strict comparison: is reported Ki < 100 nM? input = N=C(N)c1cccc(C2=NOC(Cn3cnnn3)(C(=O)Nc3ccc(-c4ccccc4S(N)(=O)=O)cc3)C2)c1 (configuration not stated)
*A* MET
